Test: Cytotoxicity against human CEM-SS cells by XTT assay
Type: cell-based
Conditions: read-out: TC50 (the source's name)
Each entry below lists one item and its recorded CC50 value.
parameter: CC50 (µM)

> print(dat)
                                    compound  units.symbol  result.number
 1  CCc1c(Sc2cc(C)cc(C)c2)n(Cc2ccccc2)c(=O)[nH]c1=O            µM           1100
 2  Cc1cc(C)cc(Oc2c(C(C)C)c(=O)[nH]c(=O)n2CC2CCCCC2)c1            µM           13.2
 3  Cc1cc(C)cc(Oc2c(C(C)C)c(=O)[nH]c(=O)n2CCC2CC=CC2)c1            µM           10.3
 4  Cc1cc(C)cc(Oc2c(C(C)C)c(=O)[nH]c(=O)n2CCC2C=CCC2)c1 (stereo unspecified)            µM            7.6
 5  Cc1cc(C)cc(C(=O)c2c(C(C)C)c(=O)[nH]c(=O)n2CCC2CCCC2)c1            µM           17.3
 6  Cc1cc(C)cc(Oc2c(C(C)C)c(=O)[nH]c(=O)n2CCC2=CCCC2)c1            µM           17.1
 7  CCc1c(C(=O)c2cc(C)cc(C)c2)n(Cc2ccccc2)c(=O)[nH]c1=O            µM           24.6
 8  Cc1cc(C)cc(C(=O)c2c(C(C)C)c(=O)[nH]c(=O)n2CC2=CCCC2)c1            µM           16.7
 9  Cc1cc(C)cc(Oc2c(C(C)C)c(=O)[nH]c(=O)n2CC2CCC2)c1            µM           16.1
10  CC(C)c1c(Sc2ccccc2)n(CC2CC=CC2)c(=O)[nH]c1=O            µM           15.5
11  Cc1cc(C)cc(C(=O)c2c(C(C)C)c(=O)[nH]c(=O)n2Cc2ccccc2)c1            µM           17.8
12  CCc1c(C(=O)c2cc(C)cc(C)c2)n(CCC2=CCCC2)c(=O)[nH]c1=O            µM           1100
13  CCc1c(Oc2cc(C)cc(C)c2)n(CCC2C=CCC2)c(=O)[nH]c1=O (stereo unspecified)            µM           1100
14  CCc1c(Sc2cc(C)cc(C)c2)n(CC2CCCCC2)c(=O)[nH]c1=O            µM           71.7
15  CCc1c(Sc2ccccc2)n(CC2CC=CC2)c(=O)[nH]c1=O            µM           20.7
16  Cc1cc(C)cc(C(=O)c2c(C(C)C)c(=O)[nH]c(=O)n2CC2CC=CC2)c1            µM           1100
17  CCc1c(Oc2cc(C)cc(C)c2)n(CC2CCC2)c(=O)[nH]c1=O            µM           1200
18  CCc1c(C(=O)c2cc(C)cc(C)c2)n(CC2CCCCC2)c(=O)[nH]c1=O            µM           1100
19  Cc1cc(C)cc(C(=O)c2c(C(C)C)c(=O)[nH]c(=O)n2CC2CCC2)c1            µM           34.2
20  CCc1c(Oc2cc(C)cc(C)c2)n(CC2CCCCC2)c(=O)[nH]c1=O            µM            114
21  CCc1c(C(=O)c2cc(C)cc(C)c2)n(CCC2C=CCC2)c(=O)[nH]c1=O (stereo unspecified)            µM             92
